System tested: T1, LRRC7, Q96NW7
T1 sequence (Q96NW7 1440-1537, limits assumed, looked up): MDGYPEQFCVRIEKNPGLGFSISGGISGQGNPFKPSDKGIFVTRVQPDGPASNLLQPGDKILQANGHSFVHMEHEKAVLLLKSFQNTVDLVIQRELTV
Experiment notes: holdup assay
Parameters: key: below the threshold = too weak to quantify, mostly under pKd 3.1 to 4
Condition details: plain residues with an end cap or a label only (N-terminal biotin on a linker: ado-ado)

| Binder | pKd |
| --- | --- |
| FVHPILQSAV [PRKCA, P17252] | 3.58 |
| TETASVCTKV [SLC23A1, Q9UHI7] | below the threshold |
| QKNKDKEYYV [NRXN3_rs746444206, Q9Y4C0] | below the threshold |
| EEPEERHTEL [CES2, O00748] | 3.61 |
